- Assay procedure: enhancers of glutamate uptake in motor neurons, MN-1 cell line (AID 1612);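 further: tested at 1 µM final; 0% = mean of DMSO vehicle wells on each plate; positive means more glutamate uptake than control and negative means less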
- Measurement setup: MN-1 motor neuron cells, stronger effect = higher value
Bridge positions count the residues as written; N and C are the ends. Square brackets hold non-standard residues; d marks the D form. Peptide text beside a SMILES is read from it. * marks the point of attachment. ξ: configuration not given here. ξDab(CH2SO3H) = NC(CCNCS(=O)(=O)O)C(=O)O; Heptanoyl(6-Me) = CC(C)CCCCC(=O)*; Dab = NCC[CH](N)C(=O)O
Metric: glutamate uptake change (%)

| Compound | Metric | Units of measure | Recorded measurement |
| --- | --- | --- | --- |
| CCC(C)C1NC(=O)C(CCNCS(=O)(=O)O)NC(=O)C(NC(=O)C(CCNCS(=O)(=O)O)NC(=O)C(NC(=O)C(CCNCS(=O)(=O)O)NC(=O)CCCCC(C)C)C(C)O)CCNC(=O)C(C(C)O)NC(=O)C(CCNCS(=O)(=O)O)NC(=O)C(CCNCS(=O)(=O)O)NC(=O)C(C(C)CC)NC1=O (stereo unspecified) ({Heptanoyl(6-Me)}-[ξDab(CH2SO3H)]T[ξDab(CH2SO3H)][Dab][ξDab(CH2SO3H)]II[ξDab(CH2SO3H)][ξDab(CH2SO3H)]T; lactam 4-C; configuration not given here) | glutamate uptake change | % | -9.16 |

Where do the numbers come from? From PubChem BioAssay.
